# experimental.protocol: in vivo
# measurement.context: both, C57BL/6, mouse, ip, 1 mg/kg, Mean M10 concentration in plasma
Peptide text beside a SMILES is read from it.
measured.property: level at 12 h (ng/mL)
All answers are understood in ng/mL, so give the number only.

For C[C@H](NC(=O)[C@@H]1CCCN1C(=O)[C@H](CCCNC(=N)N)NC(=O)[C@@H](N)[C@@H](C)O)C(=O)N[C@@H](CO)C(=O)N[C@@H](Cc1ccccc1)C(=O)N[C@@H](Cc1c[nH]c2ccccc12)C(=O)N[C@@H](CCC(=O)O)C(=O)N[C@H](C(=O)N[C@@H](CO)C(=O)O)[C@@H](C)O [M10] (H-TRPASFWETS-OH; N-terminus and C-terminus assumed) the compound record lists level at 12 h as 3140

---

# experimental.protocol: in vivo
# measurement.context: both, C57BL/6, mouse, ip, 1 mg/kg, Mean M10 concentration in plasma
Peptide text beside a SMILES is read from it.
measured.property: level at 24 h
# number then unit; no other words

For C[C@H](NC(=O)[C@@H]1CCCN1C(=O)[C@H](CCCNC(=N)N)NC(=O)[C@@H](N)[C@@H](C)O)C(=O)N[C@@H](CO)C(=O)N[C@@H](Cc1ccccc1)C(=O)N[C@@H](Cc1c[nH]c2ccccc12)C(=O)N[C@@H](CCC(=O)O)C(=O)N[C@H](C(=O)N[C@@H](CO)C(=O)O)[C@@H](C)O [M10] (H-TRPASFWETS-OH; N-terminus and C-terminus assumed) the molecule record lists level at 24 h as 801 ng/mL

---

# experimental.protocol: in vivo
# measurement.context: both, C57BL/6, mouse, ip, 1 mg/kg, Mean M10 concentration in plasma
Peptide text beside a SMILES is read from it.
measured.property: level at 4 h (ng/mL)
All answers are understood in ng/mL, so give the number only.

For C[C@H](NC(=O)[C@@H]1CCCN1C(=O)[C@H](CCCNC(=N)N)NC(=O)[C@@H](N)[C@@H](C)O)C(=O)N[C@@H](CO)C(=O)N[C@@H](Cc1ccccc1)C(=O)N[C@@H](Cc1c[nH]c2ccccc12)C(=O)N[C@@H](CCC(=O)O)C(=O)N[C@H](C(=O)N[C@@H](CO)C(=O)O)[C@@H](C)O [M10] (H-TRPASFWETS-OH; N-terminus and C-terminus assumed) the compound record lists level at 4 h as 3590

---

# experimental.protocol: in vivo
# measurement.context: both, C57BL/6, mouse, ip, 1 mg/kg, Mean M10 concentration in plasma
Peptide text beside a SMILES is read from it.
measured.property: level at 6 h (ng/mL)
All answers are understood in ng/mL, so give the number only.

For C[C@H](NC(=O)[C@@H]1CCCN1C(=O)[C@H](CCCNC(=N)N)NC(=O)[C@@H](N)[C@@H](C)O)C(=O)N[C@@H](CO)C(=O)N[C@@H](Cc1ccccc1)C(=O)N[C@@H](Cc1c[nH]c2ccccc12)C(=O)N[C@@H](CCC(=O)O)C(=O)N[C@H](C(=O)N[C@@H](CO)C(=O)O)[C@@H](C)O [M10] (H-TRPASFWETS-OH; N-terminus and C-terminus assumed) the compound record lists level at 6 h as 4550

---

# experimental.protocol: in vivo
# measurement.context: both, C57BL/6, mouse, ip, 1 mg/kg
Peptide text beside a SMILES is read from it.
measured.property: half-life

For C[C@H](NC(=O)[C@@H]1CCCN1C(=O)[C@H](CCCNC(=N)N)NC(=O)[C@@H](N)[C@@H](C)O)C(=O)N[C@@H](CO)C(=O)N[C@@H](Cc1ccccc1)C(=O)N[C@@H](Cc1c[nH]c2ccccc12)C(=O)N[C@@H](CCC(=O)O)C(=O)N[C@H](C(=O)N[C@@H](CO)C(=O)O)[C@@H](C)O [M10] (H-TRPASFWETS-OH; N-terminus and C-terminus assumed) the compound record lists half-life as 6.8 h
